Tested system: Receptor tyrosine-protein kinase erbB-2 (Homo sapiens) (UniProt P04626)
Sequence (P04626 whole entry, looked up): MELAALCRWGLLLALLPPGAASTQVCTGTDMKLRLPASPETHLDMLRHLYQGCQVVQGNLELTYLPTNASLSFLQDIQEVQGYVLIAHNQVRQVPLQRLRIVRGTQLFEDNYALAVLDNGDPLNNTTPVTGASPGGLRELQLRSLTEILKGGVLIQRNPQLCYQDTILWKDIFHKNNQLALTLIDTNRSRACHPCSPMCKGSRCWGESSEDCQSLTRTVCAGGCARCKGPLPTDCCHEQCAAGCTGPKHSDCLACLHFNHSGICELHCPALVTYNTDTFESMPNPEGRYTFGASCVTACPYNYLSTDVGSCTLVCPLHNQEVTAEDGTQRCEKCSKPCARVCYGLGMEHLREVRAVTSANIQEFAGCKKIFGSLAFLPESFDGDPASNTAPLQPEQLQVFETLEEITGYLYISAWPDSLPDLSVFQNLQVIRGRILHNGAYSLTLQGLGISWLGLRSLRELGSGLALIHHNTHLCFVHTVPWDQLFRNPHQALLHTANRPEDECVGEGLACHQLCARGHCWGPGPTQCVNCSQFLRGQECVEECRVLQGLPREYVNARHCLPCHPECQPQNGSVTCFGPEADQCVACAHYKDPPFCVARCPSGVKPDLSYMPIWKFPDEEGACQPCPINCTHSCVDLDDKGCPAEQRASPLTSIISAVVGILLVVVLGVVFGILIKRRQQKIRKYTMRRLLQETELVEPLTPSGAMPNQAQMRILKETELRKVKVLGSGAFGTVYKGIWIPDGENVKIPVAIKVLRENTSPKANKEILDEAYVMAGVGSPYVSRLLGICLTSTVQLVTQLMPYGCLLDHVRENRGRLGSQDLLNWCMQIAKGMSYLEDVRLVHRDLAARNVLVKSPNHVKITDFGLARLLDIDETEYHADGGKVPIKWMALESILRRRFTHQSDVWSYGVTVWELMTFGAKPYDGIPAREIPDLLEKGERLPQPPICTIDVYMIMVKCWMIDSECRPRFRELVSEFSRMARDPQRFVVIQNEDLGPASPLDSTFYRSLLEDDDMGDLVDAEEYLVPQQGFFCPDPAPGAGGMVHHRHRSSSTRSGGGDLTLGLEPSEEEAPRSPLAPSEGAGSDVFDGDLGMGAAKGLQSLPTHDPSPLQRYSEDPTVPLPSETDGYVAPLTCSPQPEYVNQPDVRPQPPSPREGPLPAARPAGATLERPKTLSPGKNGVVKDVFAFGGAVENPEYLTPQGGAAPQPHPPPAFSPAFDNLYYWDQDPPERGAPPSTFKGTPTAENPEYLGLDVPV
Experimental protocol: reducers of endogenous Her2 protein level, primary screen, SKBR3 breast tumor cells, AlphaScreen, ATP viability (AID 461);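 also: lower value means less Her2 protein in the cells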
Applied conditions: 18-24 h, at 10 µM, hits give low values
Value kind: Her2 level (%)
Give bare numbers, in %.

The following compounds have reported results that may help.
>>> numeric_value("Cc1ccc(C)c(NC(=O)c2ccc3c(c2)N(Cc2ccc(F)cc2)C(=O)CS3=O)c1 (stereo unspecified)")
102
>>> numeric_value("Cc1cc(C)n2nc(C(=O)NCc3ccco3)nc2n1")
90
>>> numeric_value("CCOC(=O)c1cccc(NC(=O)CSc2nc3ccccc3c(=O)n2CC)c1")
79
>>> numeric_value("CCOc1ccccc1C1CC(=O)NC(SCC)=C1C#N (stereo unspecified)")
89

Report Her2 level for each item below.
1. NC(=O)NC(c1ccccc1)c1ccccc1F (stereo unspecified)
2. CC(C)COC(=O)NCC12C=CC(O1)C1C(=O)N(c3ccc(Cl)cc3)C(=O)C12 (stereo unspecified)

Result:
1: 106; 2: 99.5
